So I've got a bunch of molecules here, and I need their pIC50 values.
ASSAYED SYSTEM: Histone deacetylase 2 (Homo sapiens)
Sequence (Q92769 whole entry): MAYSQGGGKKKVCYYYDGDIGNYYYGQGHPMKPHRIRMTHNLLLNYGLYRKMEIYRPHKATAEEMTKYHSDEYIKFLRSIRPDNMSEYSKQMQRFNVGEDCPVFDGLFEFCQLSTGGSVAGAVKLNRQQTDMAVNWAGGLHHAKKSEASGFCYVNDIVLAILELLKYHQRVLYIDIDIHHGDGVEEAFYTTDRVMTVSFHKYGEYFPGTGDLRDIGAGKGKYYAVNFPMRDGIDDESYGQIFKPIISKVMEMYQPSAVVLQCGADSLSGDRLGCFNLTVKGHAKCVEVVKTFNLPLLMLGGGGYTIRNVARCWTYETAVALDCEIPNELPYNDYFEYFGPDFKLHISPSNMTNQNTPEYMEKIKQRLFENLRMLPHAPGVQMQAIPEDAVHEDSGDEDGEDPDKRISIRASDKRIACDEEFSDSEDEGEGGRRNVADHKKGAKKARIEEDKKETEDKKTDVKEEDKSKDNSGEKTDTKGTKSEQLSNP
ASSAY OVERVIEW: Inhibition of HDAC2 (unknown origin) incubated for 30 mins in presence of BSA and DTT by fluorescence assay
Keep in mind that pIC50 stands for -log10 of concentration in molar terms.

Quick one: pIC50 for CC(C)[C@@H]1NC(=O)[C@]2(C)CSC(=N2)c2csc(n2)CNC(=O)C[C@@H](/C=C/CCSSC[C@H](NC(=O)OC(C)(C)C)C(=O)OC(C)(C)C)OC1=O ? 9.05

Quick one: pIC50 for CC(C)[C@@H]1NC(=O)[C@]2(C)CSC(=N2)c2csc(n2)CNC(=O)C[C@@H](/C=C/CCSSCC/C=C/[C@@H]2CC(=O)NCc3nc(cs3)C3=N[C@@](C)(CS3)C(=O)N[C@@H](C(C)C)C(=O)O2)OC1=O ? 9.30

###

ASSAYED SYSTEM: Histone deacetylase 1 (Homo sapiens, UniProt Q13547)
Sequence (Q13547 whole entry): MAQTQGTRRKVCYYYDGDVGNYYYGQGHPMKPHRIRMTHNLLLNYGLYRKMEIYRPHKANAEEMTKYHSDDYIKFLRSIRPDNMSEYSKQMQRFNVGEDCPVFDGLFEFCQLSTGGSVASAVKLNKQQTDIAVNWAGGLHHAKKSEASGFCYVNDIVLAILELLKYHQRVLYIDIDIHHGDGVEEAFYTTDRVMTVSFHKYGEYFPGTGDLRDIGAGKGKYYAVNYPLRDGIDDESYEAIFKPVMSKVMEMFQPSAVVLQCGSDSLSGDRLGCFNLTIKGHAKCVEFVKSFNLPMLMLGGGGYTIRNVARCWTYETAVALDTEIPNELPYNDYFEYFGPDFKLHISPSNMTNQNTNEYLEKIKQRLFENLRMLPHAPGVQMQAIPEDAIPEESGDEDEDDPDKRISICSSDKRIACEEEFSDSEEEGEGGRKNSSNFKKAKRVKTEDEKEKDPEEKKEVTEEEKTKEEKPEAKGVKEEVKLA
ASSAY OVERVIEW: Inhibition of HDAC1 (unknown origin) incubated for 30 mins in presence of BSA and DTT by fluorescence assay
So I've got a bunch of compounds here, and I need their pIC50 values.
Keep in mind that pIC50 stands for -log10 of concentration in molar terms.

Quick one: pIC50 for CC(C)[C@@H]1NC(=O)[C@]2(C)CSC(=N2)c2csc(n2)CNC(=O)C[C@@H](/C=C/CCSSC[C@H](NC(=O)OC(C)(C)C)C(=O)OC(C)(C)C)OC1=O ? 9.40

Quick one: pIC50 for C/C=C1\NC(=O)[C@H]2CSSCC/C=C/[C@H](CC(=O)N[C@H](C(C)C)C(=O)N2)OC(=O)[C@H](C(C)C)NC1=O ? 9.10

Quick one: pIC50 for CC(C)[C@@H]1NC(=O)[C@]2(C)CSC(=N2)c2csc(n2)CNC(=O)C[C@@H](/C=C/CCSSCC/C=C/[C@@H]2CC(=O)NCc3nc(cs3)C3=N[C@@](C)(CS3)C(=O)N[C@@H](C(C)C)C(=O)O2)OC1=O ? 9.52

###

ASSAYED SYSTEM: Polyamine deacetylase HDAC10 (Homo sapiens, UniProt Q969S8)
Sequence (Q969S8 whole entry): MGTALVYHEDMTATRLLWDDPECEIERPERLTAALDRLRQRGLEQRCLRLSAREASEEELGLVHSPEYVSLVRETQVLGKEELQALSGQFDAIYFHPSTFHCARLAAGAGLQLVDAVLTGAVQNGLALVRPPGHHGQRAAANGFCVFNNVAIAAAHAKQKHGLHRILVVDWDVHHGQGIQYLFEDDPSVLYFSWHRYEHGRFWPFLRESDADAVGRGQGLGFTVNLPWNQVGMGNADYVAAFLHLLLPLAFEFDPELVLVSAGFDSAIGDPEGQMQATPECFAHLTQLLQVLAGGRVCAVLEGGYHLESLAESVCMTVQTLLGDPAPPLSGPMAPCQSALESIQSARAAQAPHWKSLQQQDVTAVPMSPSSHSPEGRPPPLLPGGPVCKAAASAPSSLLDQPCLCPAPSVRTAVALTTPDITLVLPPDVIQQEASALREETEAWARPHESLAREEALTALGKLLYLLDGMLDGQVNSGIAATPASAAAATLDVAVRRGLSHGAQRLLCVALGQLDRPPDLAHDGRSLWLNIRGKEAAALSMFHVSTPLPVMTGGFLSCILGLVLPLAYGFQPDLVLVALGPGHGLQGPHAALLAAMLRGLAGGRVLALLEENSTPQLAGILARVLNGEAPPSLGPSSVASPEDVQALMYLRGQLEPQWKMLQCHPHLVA
ASSAY OVERVIEW: Inhibition of HDAC10 (unknown origin) incubated for 30 mins in presence of BSA and DTT by fluorescence assay
So I've got a bunch of molecules here, and I need their IC50 values.
Please don't drop the unit; write it after the number.

# value lookup — system Polyamine deacetylase HDAC10 (Homo sapiens, UniProt Q969S8), readout IC50, item CC(C)[C@@H]1NC(=O)[C@]2(C)CSC(=N2)c2csc(n2)CNC(=O)C[C@@H](/C=C/CCSSCC/C=C/[C@@H]2CC(=O)NCc3nc(cs3)C3=N[C@@](C)(CS3)C(=O)N[C@@H](C(C)C)C(=O)O2)OC1=O 0.2 nM

# value lookup — system Polyamine deacetylase HDAC10 (Homo sapiens, UniProt Q969S8), readout IC50, item C/C=C1\NC(=O)[C@H]2CSSCC/C=C/[C@H](CC(=O)N[C@H](C(C)C)C(=O)N2)OC(=O)[C@H](C(C)C)NC1=O [ROMIDEPSIN] 0.9 nM

# value lookup — system Polyamine deacetylase HDAC10 (Homo sapiens, UniProt Q969S8), readout IC50, item CC(C)[C@@H]1NC(=O)[C@]2(C)CSC(=N2)c2csc(n2)CNC(=O)C[C@@H](/C=C/CCSSC[C@H](NC(=O)OC(C)(C)C)C(=O)OC(C)(C)C)OC1=O 0.5 nM
